assay: TOX21_p53_BLA_p2_viability: Viability Assessment in the Tox21 HCT-116 p53 Agonism Beta-lactamase Assay, Phase 2 (AID 2283591);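 also: compound exposure lasted 16 h at 37 °C; actives lower the ATP signal meaning cytotoxicity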
Inconclusive results are not listed. Calls of active or inactive are those of the source. The calls were made as follows: active = hit-call score of the fitted dose curve at least 0.9, where 1 is the maximum; inconclusive = response in the unintended direction; inactive = score below 0.9.
Please answer using one outcome listed in active, inactive

OCC(Br)CBr (configuration not stated) = inactive
O=[N+]([O-])CCO = inactive
Cc1nnc2n1-c1sc(CCc3ccc(CC(C)C)cc3)cc1C(c1ccccc1Cl)=NC2C (configuration not stated) = active
CCC[CH2][Sn]([CH2]CCC)([O]C(C)=O)[O]C(C)=O = inactive
CCC1(c2ccccc2)C(=O)NC(=O)NC1=O = inactive
O=C(O)c1ccccn1 = inactive
CN(C)S(=O)(=O)N(SC(F)(Cl)Cl)c1ccccc1 = active
NC1(c2ccccc2)CCCCC1 = inactive

Enquiry: What is the recorded call for this compound in the test? O=C(O)/C=C/C(=O)O
Return: inactive

Enquiry: What is the recorded call for this compound in the test? Oc1ccc(C2(c3ccc(O)cc3)CCCCC2)cc1
Return: active
